- assay details: Toxicity liver stage against HepG2, at 10uM
- Type: cell-based
- Parameters: test concentration 10 uM, cell line HepG2-A16-CD81EGFP
- condition parameters: human, HepG2-A16-CD81EGFP cells; read-out: INHIBITION
measured property: cytotoxicity at 10 µM (%)
Report as a plain number; the unit % is understood.

Examples with their reported cytotoxicity at 10 µM follow.
COCC(=O)N1CCC(c2nccn2CC2CC2)CC1
-14.6
CN(C)C(=O)C1CCN(C2CCN(CC3CCC3)CC2)CC1
2.82
COCc1ccccc1C(=O)NCC(c1c(F)cccc1F)N(C)C (stereo unspecified)
-9.75
CNC(=O)[C@H]1CC[C@@H]2[C@@H](CCN2C(=O)N(C)C)O1
6.86
CC(C)CCOc1ccc(C(C)NC(=O)Cn2cccnc2=O)cc1 (stereo unspecified)
-4.24

Here is another molecule to look at.
What cytotoxicity at 10 µM value was documented for this molecule, Cn1cc(N2CCC(NC(=O)c3c(F)cccc3Cl)C2=O)cn1 (stereo unspecified) ?
0.91
